- System: Rattus norvegicus
- Measurement description: Retention of tracer Gallium in blood of rats after intravenous administration and Gallium-67 Bis(salicylaldimine) after 1 min
- Assay type: functional
Readout name: Injected dose (%)
Give bare numbers, in %.

For every item below, please supply its Injected dose.
1. COc1ccc(O)c(/C=N/CCCNCCNCCC/N=C/c2cc(OC)ccc2O)c1
2. COc1cc(O)c(/C=N/CCCNCCNCCC/N=C/c2c(O)cc(OC)cc2OC)c(OC)c1
3. CCN(CC)c1ccc(/C=N/CCCNCCNCCC/N=C/c2ccc(N(CC)CC)cc2O)c(O)c1
4. COc1cc(O)c(/C=N\CC(C)(C)CNCCNCC(C)(C)C/N=C/c2c(O)cc(OC)cc2OC)c(OC)c1
5. CCOc1cc(C)c(/C=N/CCCNCCNCCC/N=C/c2c(C)cc(OCC)cc2O)c(O)c1
6. COc1cc(C)c(/C=N/CCCNCCNCCC/N=C/c2c(C)cc(OC)cc2O)c(O)c1
7. Oc1ccccc1/C=N/CCCNCCNCCC/N=C/c1ccccc1O

7.55
8.49
11.1
18.8
7.73
5.94
4.21

For every item below, please supply its Injected dose.
1. COc1ccc(/C=N/CCCNCCNCCC/N=C/c2ccc(OC)cc2O)c(O)c1
2. COc1cc(O)c(/C=N/CCCNCCNCCC/N=C/c2cc(C)c(OC)cc2O)cc1C
3. CCN(CC)c1ccc(/C=N\CC(C)(C)CNCCNCC(C)(C)C/N=C/c2ccc(N(CC)CC)cc2O)c(O)c1
4. CC(C)c1ccc(O)c(/C=N/CCCNCCNCCC/N=C/c2cc(C(C)C)ccc2O)c1

[4.44, 7.79, 30.6, 23.4]
